Hi there, I'd appreciate the recorded EC50 for every entry that follows.
- Study system: UniProt:Q14416
- Sequence (Q14416 whole entry): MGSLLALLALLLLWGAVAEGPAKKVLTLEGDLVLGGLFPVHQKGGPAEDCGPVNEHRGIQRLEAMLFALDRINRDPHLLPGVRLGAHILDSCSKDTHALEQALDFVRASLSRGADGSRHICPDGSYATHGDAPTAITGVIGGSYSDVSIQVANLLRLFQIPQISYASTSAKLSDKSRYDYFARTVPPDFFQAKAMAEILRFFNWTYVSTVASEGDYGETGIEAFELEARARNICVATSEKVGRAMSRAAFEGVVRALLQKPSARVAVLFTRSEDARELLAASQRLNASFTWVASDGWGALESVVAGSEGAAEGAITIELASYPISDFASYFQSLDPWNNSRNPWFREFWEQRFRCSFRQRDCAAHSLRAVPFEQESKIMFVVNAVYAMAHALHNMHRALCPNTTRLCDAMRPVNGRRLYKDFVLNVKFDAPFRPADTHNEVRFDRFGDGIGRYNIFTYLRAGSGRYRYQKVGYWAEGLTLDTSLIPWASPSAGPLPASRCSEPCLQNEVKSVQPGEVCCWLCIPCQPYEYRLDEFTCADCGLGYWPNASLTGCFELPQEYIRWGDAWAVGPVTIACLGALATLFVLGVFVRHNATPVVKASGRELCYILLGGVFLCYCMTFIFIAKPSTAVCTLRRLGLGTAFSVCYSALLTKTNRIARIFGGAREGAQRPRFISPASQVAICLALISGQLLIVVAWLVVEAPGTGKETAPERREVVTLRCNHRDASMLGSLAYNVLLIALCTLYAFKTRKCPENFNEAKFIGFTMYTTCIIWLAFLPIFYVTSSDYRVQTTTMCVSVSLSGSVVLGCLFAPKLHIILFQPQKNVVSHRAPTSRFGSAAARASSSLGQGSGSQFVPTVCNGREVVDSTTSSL
- Protocol notes: Effective concentration against metabotropic glutamate receptor 2
Give just the numeric value; µM need not be written.

**Q:** Look at this compound and give its reported EC50. CCS(=O)(=O)N(Cc1cccnc1)c1ccc(COc2ccccc2)cc1
**A:** 2.1

**Q:** # query: EC50 of entry C=C(c1ccccc1)c1cccc(N(Cc2cccnc2)S(=O)(=O)CC)c1
**A:** 0.2

**Q:** EC50 for O=S(=O)(CC(F)(F)F)N(Cc1cccnc1)c1cccc(OC(F)(F)F)c1 ?
**A:** 0.14

**Q:** I'd like to know its EC50. The compound in question is CCS(=O)(=O)N(Cc1cccnc1)c1ccc(Cc2ccccc2)cc1
**A:** 1.6

**Q:** Consider the compound shown here: COc1cccc(N(Cc2cccnc2)S(=O)(=O)CC(F)(F)F)c1 What is its recorded EC50?
**A:** 2.1
